- SYSTEM TESTED: Short transient receptor potential channel 4 (Mus musculus)
- ASSAY OVERVIEW: calcium flux activators in TRPC4/5HT1a cells, counter-screen for TRPC4 activator project, cell-based, second counter screen, HEK293 TRPC4/5HT1a, Fluo-4 (AID 434977)
- PROTOCOL CONDITIONS: Fluo-4 calcium flux, at 10 µM
The source made the active and inactive calls.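 How the source made its calls: active means calcium signal rise above buffer-control mean plus 5 SD in both duplicates, and also a hit in the primary screen; inactive means the rest.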
Please answer using one outcome listed in active, inactive

Please let me know the test result on file for CCCC1C(=O)Nc2ccccc2N1C(=O)c1ccc(C(C)(C)C)cc1 (stereo not drawn) .
inactive

Would you kindly repeat that for O=C(CN1CCCCC1)N1c2ccccc2Oc2ccccc21 ?
inactive

Would you kindly repeat that for COc1ccc(C(=O)C2CCCN(Cc3ccc(Sc4nncn4C)o3)C2)cc1F (stereo not drawn) ?
active

Would you kindly repeat that for Cc1ccc(CS(=O)(=O)CCC(=O)NCCC2=CCCCC2)cc1 ?
inactive

Would you kindly repeat that for CCN(CCNC(=O)C1CCCN(c2ncnc3c2nc2n3CCCCC2)C1)Cc1ccccc1 (stereo not drawn) ?
inactive

Would you kindly repeat that for Cc1ccc(S(=O)(=O)Nc2ccc(N=Nc3ccc(O)cc3)cc2)cc1 ?
inactive

Would you kindly repeat that for Fc1ccccc1Sc1ccccc1CNC1=NCCN1 ?
inactive

Would you kindly repeat that for Cc1c(C(=O)NCCc2ccccc2)oc2ccccc12 ?
inactive

Would you kindly repeat that for Cc1cccc(C)c1OCC(=O)N1CC2(C)CC1CC(C)(C)C2 (stereo not drawn) ?
inactive

Would you kindly repeat that for O=C(c1coc2ccc(O)c(CN3CCOCC3)c12)C1CC1 ?
inactive

Would you kindly repeat that for CCN(CC)CCOCCOc1ccc(Cl)c2ccccc12 ?
inactive

Would you kindly repeat that for S=c1[nH]nc(-c2cc3c(s2)-c2ccccc2CC3)o1 ?
inactive

Would you kindly repeat that for CN(C)CCCN(C(=O)c1ccc(Cl)s1)c1nc2cc3c(cc2s1)OCO3 ?
inactive

Would you kindly repeat that for c1ccc(-c2nc(NCc3cccnc3)c3ccccc3n2)cc1 ?
inactive

Would you kindly repeat that for CCOc1ccc(CCNC(=O)c2ccc3c(=O)[nH]c4c(C(=O)NC(C)C)sc(=S)n4c3c2)cc1 ?
inactive

Would you kindly repeat that for Clc1cccc(C[n+]2cc(-c3ccccc3)n3c2CCC3)c1 ?
inactive

Would you kindly repeat that for CCOC(=O)CSc1nc2ccccc2c(=O)n1C1CCCC1 ?
inactive

Would you kindly repeat that for NC(=O)c1nsc(C(=O)N(Cc2ccc(F)cc2)C(C(=O)NCC2CCCO2)c2ccc(O)cc2)c1N (stereo not drawn) ?
inactive

Would you kindly repeat that for Cc1[nH]c2ccccc2c1C(=O)CN1C(=O)NC(C)(c2ccc(Cl)cc2Cl)C1=O (stereo not drawn) ?
inactive

Would you kindly repeat that for CC1CCN(CCCOc2ccc(OCc3ccccc3)cc2)CC1 ?
inactive

Would you kindly repeat that for COc1cccc(Oc2cncnc2-c2ccc(OC)cc2O)c1 ?
inactive

Would you kindly repeat that for CN(C)CCCOC(=O)c1ccc(Cl)cc1Cl ?
inactive

Would you kindly repeat that for CN1CCN(c2ccc(NC(=O)COc3cccc4ccccc34)cc2)CC1 ?
inactive

###

- SYSTEM TESTED: Short transient receptor potential channel 4 (Mus musculus) (UniProt Q9QUQ5)
- Sequence (Q9QUQ5 whole entry, looked up): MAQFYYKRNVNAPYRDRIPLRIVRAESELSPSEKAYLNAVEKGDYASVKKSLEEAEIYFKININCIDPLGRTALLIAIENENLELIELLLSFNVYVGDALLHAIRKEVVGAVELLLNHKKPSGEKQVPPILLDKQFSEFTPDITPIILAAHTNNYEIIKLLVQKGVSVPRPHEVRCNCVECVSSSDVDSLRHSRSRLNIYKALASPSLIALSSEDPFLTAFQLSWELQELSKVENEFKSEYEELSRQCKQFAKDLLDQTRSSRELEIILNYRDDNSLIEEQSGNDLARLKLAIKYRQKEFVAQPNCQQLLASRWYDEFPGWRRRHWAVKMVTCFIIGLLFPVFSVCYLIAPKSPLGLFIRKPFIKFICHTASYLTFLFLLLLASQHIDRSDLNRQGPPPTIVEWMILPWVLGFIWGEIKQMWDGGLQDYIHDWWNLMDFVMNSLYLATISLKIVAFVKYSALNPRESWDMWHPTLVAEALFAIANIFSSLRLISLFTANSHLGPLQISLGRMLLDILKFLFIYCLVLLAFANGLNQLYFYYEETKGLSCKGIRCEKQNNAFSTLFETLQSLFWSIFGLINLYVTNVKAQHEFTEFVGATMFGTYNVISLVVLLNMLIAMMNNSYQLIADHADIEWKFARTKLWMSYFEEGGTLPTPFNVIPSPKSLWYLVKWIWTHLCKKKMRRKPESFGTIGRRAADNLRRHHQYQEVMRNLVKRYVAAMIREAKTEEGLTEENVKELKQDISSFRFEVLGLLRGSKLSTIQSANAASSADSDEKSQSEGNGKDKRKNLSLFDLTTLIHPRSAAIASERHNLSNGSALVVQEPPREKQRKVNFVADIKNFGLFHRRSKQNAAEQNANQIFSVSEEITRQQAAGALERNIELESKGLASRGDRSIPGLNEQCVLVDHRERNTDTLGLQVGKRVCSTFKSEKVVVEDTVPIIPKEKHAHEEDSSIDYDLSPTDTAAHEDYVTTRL
- ASSAY OVERVIEW: blockers of DAMGO-evoked TRPC4 calcium flux – cell-based, Fluo4, HEK293 TRPC4beta/mu-opioid, confirmation (AID 2636)
- PROTOCOL CONDITIONS: at 10 µM
Calls of active or inactive are those of the source.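 Rule for the calls: active = calcium signal cut by more than 3 SD below the full-agonist control yet still positive, in both repeats and the earlier primary screen; inactive = the rest.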
Please answer using one outcome listed in active, inactive

Please let me know the test result on file for CN(C(=O)COC(=O)c1sc2ccccc2c1Cl)C1CCCCC1 .
inactive

Would you kindly repeat that for Cc1ccc(Cn2c(=N)c(C(=O)NC3CCCC3)cc3c(=O)n4ccccc4nc32)cc1 ?
inactive

Would you kindly repeat that for O=C(Cc1cccs1)Nc1nc(-c2ccc(F)cc2F)cs1 ?
inactive

Would you kindly repeat that for CC(C)NCC(O)COCCOc1ccc(C(C)(C)C)cc1 (stereo unspecified) ?
active

Would you kindly repeat that for COc1cc(C2(c3ccc(O)c(OC)c3)C(=O)Nc3c(C)cc(Br)cc32)ccc1O ?
inactive

Would you kindly repeat that for Cc1cc(/C=C2/C(=N)N3C(=NC2=O)SN=C3S(C)(=O)=O)c(C)n1-c1ccccc1F ?
inactive

Would you kindly repeat that for CCOc1ccc(Cl)cc1/C=N/O ?
active

Would you kindly repeat that for CCOc1ccccc1NC(=O)CN(c1ccc(OC)cc1)S(=O)(=O)c1c(C)[nH]c(=O)[nH]c1=O ?
inactive

Would you kindly repeat that for CC(CN1CCCC(C(N)=O)C1)c1ccccc1 (stereo unspecified) ?
inactive

Would you kindly repeat that for COC(=O)c1ccccc1N=Nc1c(C)[nH][nH]c1=O ?
inactive

Would you kindly repeat that for O=C(CSc1nnc(-c2ccccc2)o1)c1ccc2c(c1)OCCO2 ?
inactive

###

- SYSTEM TESTED: Short transient receptor potential channel 4 (Mus musculus) (UniProt Q9QUQ5)
- ASSAY OVERVIEW: blockers of DAMGO-evoked TRPC4 calcium flux – cell-based, second round, Fluo4, HEK293 TRPC4beta/mu-opioid, 1 µM, confirmation (AID 2637)
- PROTOCOL CONDITIONS: at 1 µM
Activity calls are given as the source filed them.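 The calls were made as follows: active = calcium signal ratio cut to more than 3 SD under the fully stimulated control mean yet still positive, in both repeats and the primary screen; inactive = the rest.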
Please answer using one outcome listed in 1 = active, -1 = inactive

Please let me know the test result on file for Cc1cc(S(=O)(=O)N2CCC(N3CCCCC3)CC2)ccc1-n1cnnn1 .
-1

Would you kindly repeat that for CCOc1ccc(CN2CCCC(CNC(=O)c3ccc(F)cc3)C2)cc1CO (stereo not given) ?
-1

Would you kindly repeat that for Cc1ccc(Cl)cc1N1CCN(Cc2nc3ccsc3c(=O)[nH]2)CC1 ?
-1

Would you kindly repeat that for CCC1CCCCN1CCN1C(=O)C2C(C(=O)Nc3ccc(OC)cc3)C3C=CC2(O3)C1C(=O)NC1CCCCC1 (stereo not given) ?
1

Would you kindly repeat that for Cc1ccc(CNC(=O)CCC2CCCN(Cc3cc4ccccc4o3)C2)o1 (stereo not given) ?
-1

Would you kindly repeat that for CCN(CCO)Cc1csc2ccc(Br)cc12 ?
-1

Would you kindly repeat that for O=C(CC1C(=O)NCCN1Cc1ccc(-c2ccccc2)cc1)NCCc1ccccn1 (stereo not given) ?
-1

Would you kindly repeat that for Cc1[nH]n(C)c(=O)c1C(=O)c1c(-c2c(Cl)cccc2Cl)noc1C ?
1

Would you kindly repeat that for Cc1ccc(NC(=S)NC2CC3CCC(C2)N3Cc2ccco2)c(C)c1 (stereo not given) ?
-1

Would you kindly repeat that for O=C(C[n+]1cc(-c2ccc(Cl)c(Cl)c2)n2c1CCC2)N1c2ccccc2Sc2ccccc21 ?
-1

###

- Tested on: TRPC4 beta (transient receptor potential cation channel C4), mouse
- ASSAY OVERVIEW: TRPC4 cation channel opening, retest – cell-based, Fluo4 calcium, HEK293 TRPC4beta/mu-opioid, duplicates, 10 µM, confirmation (AID 2426)
- PROTOCOL CONDITIONS: Fluo4 calcium fluorescence, at 10 µM
Active and inactive are the calls of the source.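 Rule for the calls: active = fluorescence ratio normalized to control raised more than 50% in primary screen plus both repeat runs; inactive = the rest.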
Please answer using one outcome listed in true (1) for active, false (0) for inactive

Please let me know the test result on file for CN(Cc1cnn(C)c1)C(=O)c1ccc(OC2CCN(CCc3ccccc3)CC2)cc1 .
false (0)

Would you kindly repeat that for CCOC(=O)C1=C(C)N(c2ccccc2)C(=O)NC1c1cccc([N+](=O)[O-])c1 (stereo unspecified) ?
false (0)

Would you kindly repeat that for CCCCCCn1c(N2CCN(c3ccccc3)CC2)nc2c1c(=O)n(C)c(=O)n2C ?
false (0)

Would you kindly repeat that for CC(C)(C)c1cc2cccnc2n1Cc1ccccc1 ?
false (0)

Would you kindly repeat that for CCOc1ccccc1N(CC(=O)N1CCOCC1)S(=O)(=O)c1ccc(SC)cc1 ?
true (1)

Would you kindly repeat that for CCOc1ccccc1CN1CCC(n2nccc2NC(=O)CCc2ccccc2)CC1 ?
false (0)

Would you kindly repeat that for CC(C)C1CC(CCNCc2ccc(N(C)C)cc2)(c2ccccc2)CCO1 (stereo unspecified) ?
true (1)

Would you kindly repeat that for COc1ccccc1/C=C/CN1CCCC(CCC(=O)NCc2ccccc2F)C1 (stereo unspecified) ?
true (1)

Would you kindly repeat that for Cn1c(-c2ccccc2)cnc1NCc1ccc(F)cc1 ?
false (0)

Would you kindly repeat that for COc1ccccc1N1CCN(C(c2cccs2)C(C)NC(=O)c2ccco2)CC1 (stereo unspecified) ?
true (1)

Would you kindly repeat that for OCCNCc1cc(Br)ccc1OCc1ccc(Cl)cc1Cl ?
false (0)

###

- SYSTEM TESTED: Short transient receptor potential channel 4 (Mus musculus) (UniProt Q9QUQ5)
- ASSAY OVERVIEW: blockers of DAMGO-evoked TRPC4 calcium flux – cell-based, Fluo4, HEK293 TRPC4beta/mu-opioid, confirmation (AID 2636)
- PROTOCOL CONDITIONS: at 10 µM
Activity calls are given as the source filed them.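 The calls were made as follows: active = calcium signal cut by more than 3 SD below the full-agonist control yet still positive, in both repeats and the earlier primary screen; inactive = the rest.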
Please answer using one outcome listed in class 1 (active), class 0 (inactive)

Please let me know the test result on file for CCOC(=O)Cc1csc(NC(=O)NC2(C(F)(F)F)Oc3cc(Cl)c(Cl)cc3O2)n1 .
class 1

Would you kindly repeat that for O=C(NC1CC1)C1=C[C@H](c2csc3ccccc23)C[C@H](OCc2ccc(CO)cc2)O1 ?
class 0

Would you kindly repeat that for Cc1cc2nc(CSc3ccc(Cl)cc3)cc(=O)n2[nH]1 ?
class 0

Would you kindly repeat that for CC1CCc2c(sc3ncnc(SCC(=O)Nc4ccc(C(=O)O)cc4)c23)C1 (stereo not given) ?
class 1

Would you kindly repeat that for CCCN(CCC)CCCNC(=O)c1cc2c(-c3ccc(OC)c(OC)c3)nn(C)c2s1 ?
class 0
